molecular target: Phospholipase A and acyltransferase 3 (Homo sapiens, UniProt P53816); assay: Inhibition of full-length C-terminal FLAG-tagged human PLAAT3 expressed in HEK293T cell lysate preincubated for 30 mins followed by MB064 addition and measured after 20 mins by SDS-PAGE based ABPP analysis
Sequence (P53816 whole entry): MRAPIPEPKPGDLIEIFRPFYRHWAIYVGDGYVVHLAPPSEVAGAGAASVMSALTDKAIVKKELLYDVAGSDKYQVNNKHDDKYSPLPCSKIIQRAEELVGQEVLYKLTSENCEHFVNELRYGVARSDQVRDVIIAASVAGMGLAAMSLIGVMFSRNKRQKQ
IC50: recorded values
# output: bare number, implied unit nM

Worked set:
| structure.as.smiles | unit.descriptor | IC50 |
| --- | --- | --- |
| COc1ccc(CCC(=O)C(=O)NCCc2ccccc2)cc1 | nM | 3160 |
| O=C(/C=C/c1ccccc1)C(=O)NCCc1ccccc1 | nM | 1580 |
| COc1ccc(CCNC(=O)C(=O)CCCc2ccccc2)cc1 | nM | 794 |

// next entry
q: Recall the recorded IC50 for O=C(CCCc1ccccc1)C(=O)NCCc1ccc(Cl)cc1Cl with Phospholipase A and acyltransferase 3 (Homo sapiens, UniProt P53816) and state it.
a: 251
